B1: library; a variant is named by its letters at N, in order (parent)
chain: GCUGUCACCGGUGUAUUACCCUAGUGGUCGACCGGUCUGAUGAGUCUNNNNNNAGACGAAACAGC

Variants of: B1
Assay: normalized RNA/DNA level with ligand (relative to sTRSVctl = 100) (log10 (% of sTRSVctl)); ligand: hypoxanthine (xanthine aptamer); higher = less ribozyme self-cleavage, higher mRNA level
Conditions: ligand concentration (+) RNA-Seq: 5 mM, HEK293T, reporter: mCherry (pCS4076), ligand present: yes
measurement_name: normalized RNA/DNA level with ligand (log10)

# variant_spec, data_value
records = [
    ("UUACAU", 1.93),
    ("GCCUGU", 1.93),
    ("AGGGGA", 1.91),
    ("UUAAUA", 1.95),
    ("AGGAGC", 1.88),
    ("GGUGCU", 2.02),
    ("GACAAG", 1.83),
    ("CAAGAC", 1.92),
    ("AGGAUA", 1.9),
    ("GCGUAU", 1.83),
    ("AAUGCG", 1.85),
    ("ACGGGC", 1.94),
    ("GGCUAU", 1.95),
    ("GGCCUG", 1.99),
    ("UGGAUG", 1.92),
    ("GCUCCA", 1.94),
    ("ACUGCG", 1.92),
    ("UUAAGA", 1.88),
    ("CUGGCC", 1.98),
    ("UCAGAG", 1.9),
    ("AAGUCA", 1.9),
    ("CACUGU", 2),
    ("UAAACU", 1.94),
    ("GUAAAU", 1.88),
    ("CUAAUG", 1.92),
    ("GUUCAC", 1.96),
    ("AGUAAG", 1.82),
    ("GUUAAU", 1.9),
    ("GCCAUU", 1.96),
    ("AAUUUC", 1.91),
    ("AGUGAU", 1.91),
    ("UAACGG", 1.82),
    ("UAUAGG", 1.85),
    ("GUGUGC", 1.8),
    ("UGGUCU", 1.91),
    ("GGCAUA", 1.94),
    ("AUAGUA", 1.88),
    ("UAAGGU", 1.94),
    ("CUUUUG", 1.95),
    ("AAGUAG", 1.59),
    ("GGUUUC", 1.95),
    ("CGGUUA", 1.89),
    ("GCCGAC", 1.89),
    ("AUGUGC", 1.85),
    ("GCAUUC", 2),
    ("UAAAGU", 1.89),
    ("UCUAUC", 2.05),
    ("GACAGU", 1.93),
    ("GCCACC", 1.9),
    ("CCGACC", 2.08),
    ("UCGUCU", 1.93),
    ("AUGGUG", 1.79),
    ("GGACUA", 1.91),
    ("GGCAGU", 1.98),
    ("UCGUAA", 1.87),
    ("ACGACG", 1.82),
    ("CAUCAA", 1.94),
    ("UUGCAA", 1.92),
    ("ACUUGA", 1.93),
    ("UUUACU", 1.94),
    ("GUCAUU", 1.97),
    ("CCUGCC", 2.04),
    ("CGGAUG", 1.99),
    ("UUUCUU", 1.94),
    ("UAUAGU", 1.86),
    ("UGAAUU", 1.93),
    ("CCCGAC", 1.96),
    ("CUGUCC", 2.01),
    ("CCUACC", 1.94),
    ("CUUCAG", 1.92),
    ("UCCAUA", 1.9),
    ("CAGCCG", 1.95),
    ("ACUAGA", 1.92),
    ("UCUGAC", 1.99),
    ("CGUGGC", 1.9),
    ("UCCCUC", 1.98),
    ("UGAAGA", 1.9),
    ("GAACGA", 1.91),
    ("GGCGAU", 1.97),
    ("AGGCAC", 1.94),
    ("GGAGUA", 1.9),
    ("AGCUGG", 1.91),
    ("AACGCA", 1.91),
    ("UAGGAU", 1.94),
    ("UACCGG", 1.91),
    ("AAAAUC", 1.94),
    ("ACGCAU", 1.79),
    ("CCUCGA", 2),
    ("GUUUGA", 1.97),
    ("UACAUG", 1.93),
    ("AGGUUA", 1.93),
]

Data provenance is the supplement of paper PMC6757056.
